Target: T1, human galanin (mature, processed form) (human, UniProt P22466 33-62, 125I-labelled in the filtration and immunoprecipitation assays; biotinylated in the IGEN assay and in the BIAcore assay of Table 4)
T1 construct: mature; the assays used the mature peptide; also called biotinylated galanin
T1 peptide (looked up): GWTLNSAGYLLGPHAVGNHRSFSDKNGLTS
Assay: BIAcore 3000; IgG captured by goat anti-human IgG Fc on CM5, human galanin peptide flowed; 1:1 Langmuir fit
Method: In terms of ELISA signal, the top 17 Fab fragments consisted of various combinations of three light chains and five heavy chains. For example, the heavy variable region of Fab P1A7 was identical to the heavy variable regions of Fabs R2E9 and R2E8. […] Affinities of these purified antibodies were measured on a BIAcore 3000. […] The binding kinetics was analyzed using the model fit of 1:1 Langmuir+local Rmax+Mass Transfer. […]
READOUT: kon (M⁻¹ s⁻¹)
Number in M⁻¹ s⁻¹, nothing else.

BINDER: humanized 5B4 IgG1: light chain zu5B4 v04 with heavy chain zu5B4 v13 (antibody, V domains shown, Human IgG1 / human kappa, expressed in E5 cells; VH of humanized 5B4-v13, VL of humanized 5B4-v4) VH: EVQLVQSGAEVKKPGATVKISCKVSGFNIEDYYMHWVQQAPGKGLEWIGRIDPENGNTIYDPKFQGRVTITADTSTNTAYMDLSSLRSEDTAVYYCARGYVDWGQGTLVTVSS VL: DVVMTQSPLSLPVTLGQPASISCRSSQSIVHSDGDTYLEWYLQRPGQSPMLLIYKVSNRFSGVPDRFSGSGSGTDFTLKITRVEAEDVGVYYCFQGSHVPYTFGGGTKVEIKR
kon / M⁻¹ s⁻¹: 2.8e+06
--
BINDER: humanized 5B4 IgG1: light chain zu5B4 v04 with heavy chain zu5B4 v06 (antibody, V domains shown, Human IgG1 / human kappa, expressed in E5 cells; VH of humanized 5B4-v6, VL of humanized 5B4-v4) VH: EVQLVQSGAEVKKPGATVKISCKVSGFNIEDYYMHWVQQAPGKGLEWIGRIDPENGNTIYDPKFQGRATITADTSTNTAYLDLSSLRSEDTAVYYCARGYVDWGQGTLVTVSS VL: DVVMTQSPLSLPVTLGQPASISCRSSQSIVHSDGDTYLEWYLQRPGQSPMLLIYKVSNRFSGVPDRFSGSGSGTDFTLKITRVEAEDVGVYYCFQGSHVPYTFGGGTKVEIKR
kon / M⁻¹ s⁻¹: 3.2e+06
--
BINDER: humanized 5B4 IgG1: light chain zu5B4 v04 with heavy chain zu5B4 v04 (antibody, V domains shown, also called P1A7 (as IgG1); humanized 5B4-v4) VH: EVQLVQSGAEVKKPGATVKISCKVSGFNIEDYYMHWVQQAPGKGLEWMGRIDPENGNTIYDPKFQGRVTITADTSTNTAYLDLSSLRSEDTAVYYCARGYVDWGQGTLVTVSS VL: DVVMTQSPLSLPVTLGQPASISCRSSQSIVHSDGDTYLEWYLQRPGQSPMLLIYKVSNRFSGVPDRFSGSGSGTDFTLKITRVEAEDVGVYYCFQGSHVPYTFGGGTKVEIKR
kon / M⁻¹ s⁻¹: 3.3e+06

# context switch: different binder, same kon
What the record says about humanized 5B4 IgG1: light chain zu5B4 v13 with heavy chain zu5B4 v04 (antibody, V domains shown, Human IgG1 / human kappa, expressed in E5 cells; VH of humanized 5B4-v4, VL of humanized 5B4-v13) VH: EVQLVQSGAEVKKPGATVKISCKVSGFNIEDYYMHWVQQAPGKGLEWMGRIDPENGNTIYDPKFQGRVTITADTSTNTAYLDLSSLRSEDTAVYYCARGYVDWGQGTLVTVSS VL: DVVMTQSPLSLPVTLGQPASISCRSSQSIVHSDGDTYLEWYQQRPGQSPMLLIYKVSNRFSGVPDRFSGSGSGTDFTLKITRVEAEDVGVYYCFQGSHVPYTFGGGTKVEIKR : kon is 3.5e+06
